meta.source: ChEMBL document CHEMBL6074671

# ASSAY_PROTOCOL: Volume of distribution in Balb/c mouse administered as iv dose
# Assay type: ADME, organism-based
# SETUP_CONDITIONS: in vivo
REPORTED_PROPERTY: Vd (L/kg)
Numbers only, in L/kg.

Identify measured Vd corresponding to CN1Cc2nc(Nc3ccc(C4=CCCC(NC(=O)c5ccccc5)C4)nc3C(N)=O)ccc2C12CCOCC2 (stereo unspecified)
1.08

====

# MEASURED_ON: Misshapen-like kinase 1 (Homo sapiens, UniProt Q8N4C8)
# Sequence (Q8N4C8 whole entry, the tested form may be a part): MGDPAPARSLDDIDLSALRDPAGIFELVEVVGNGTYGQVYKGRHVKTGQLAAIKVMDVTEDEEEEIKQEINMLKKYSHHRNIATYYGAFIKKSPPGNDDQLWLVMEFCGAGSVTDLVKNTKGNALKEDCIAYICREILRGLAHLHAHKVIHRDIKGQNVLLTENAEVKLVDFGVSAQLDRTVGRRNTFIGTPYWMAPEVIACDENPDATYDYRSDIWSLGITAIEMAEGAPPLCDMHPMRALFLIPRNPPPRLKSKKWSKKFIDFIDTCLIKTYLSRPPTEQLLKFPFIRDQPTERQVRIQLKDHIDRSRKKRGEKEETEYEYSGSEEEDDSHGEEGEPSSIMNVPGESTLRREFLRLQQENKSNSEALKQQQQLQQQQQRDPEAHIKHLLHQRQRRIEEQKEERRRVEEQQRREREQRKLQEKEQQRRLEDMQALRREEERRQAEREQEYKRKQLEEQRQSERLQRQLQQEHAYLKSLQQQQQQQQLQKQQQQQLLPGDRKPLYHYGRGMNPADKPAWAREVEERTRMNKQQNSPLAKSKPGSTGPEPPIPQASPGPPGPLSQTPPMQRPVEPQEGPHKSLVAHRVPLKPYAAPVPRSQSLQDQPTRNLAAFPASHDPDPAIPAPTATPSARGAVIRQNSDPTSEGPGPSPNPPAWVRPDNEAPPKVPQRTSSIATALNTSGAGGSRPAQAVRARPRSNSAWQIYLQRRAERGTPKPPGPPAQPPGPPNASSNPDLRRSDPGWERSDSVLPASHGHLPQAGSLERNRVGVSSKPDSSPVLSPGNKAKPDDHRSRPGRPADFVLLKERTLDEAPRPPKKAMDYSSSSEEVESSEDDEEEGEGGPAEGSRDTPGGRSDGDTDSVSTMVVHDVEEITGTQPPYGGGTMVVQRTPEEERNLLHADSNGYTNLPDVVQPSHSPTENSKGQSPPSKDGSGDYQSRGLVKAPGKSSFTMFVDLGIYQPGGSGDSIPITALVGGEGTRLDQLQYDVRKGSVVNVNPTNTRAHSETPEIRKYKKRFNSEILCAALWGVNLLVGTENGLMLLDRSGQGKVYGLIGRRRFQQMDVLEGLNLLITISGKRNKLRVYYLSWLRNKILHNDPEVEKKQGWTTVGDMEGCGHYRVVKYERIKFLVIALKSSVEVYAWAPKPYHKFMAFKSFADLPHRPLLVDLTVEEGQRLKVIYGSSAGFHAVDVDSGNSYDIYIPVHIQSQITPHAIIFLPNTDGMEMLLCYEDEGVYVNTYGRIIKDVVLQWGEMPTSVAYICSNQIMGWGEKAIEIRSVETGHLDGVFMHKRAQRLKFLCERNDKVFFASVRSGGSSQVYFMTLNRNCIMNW
# ASSAY_PROTOCOL: Inhibition of catalytic domain human GST-tagged N-terminal MAP4K6 (1 to 314 residues) expressed in insect Sf21 cells
REPORTED_PROPERTY: IC50 (nM)
One number for each entry, in nM.

Find the measured IC50 of COc1cc(Nc2ccc3c(n2)CN(C)C32CCN(C3COC3)CC2)c(C(N)=O)nc1-c1cccc2c1ncn2C and report it.
116

====

# ASSAY_PROTOCOL: Kinetic solubility of the compound in PBS buffer at pH 7.4 measured after 24 hrs by HPL-UV analysis
# Assay type: physicochemical
# SETUP_CONDITIONS: read-out: Kinetic_solubility
REPORTED_PROPERTY: solubility kinetic at 24 h
I'd appreciate it if you wrote the number followed by its unit.

# return recorded solubility kinetic at 24 h for input COc1cc(Nc2ccc3c(n2)CN(C)C32CCN(C3COC3)CC2)c(C(N)=O)nc1-c1cccc2c1ncn2C
2.14 µM

====

# MEASURED_ON: Serine/threonine-protein kinase PAK 3 (Homo sapiens, UniProt O75914)
# Sequence (O75914 whole entry): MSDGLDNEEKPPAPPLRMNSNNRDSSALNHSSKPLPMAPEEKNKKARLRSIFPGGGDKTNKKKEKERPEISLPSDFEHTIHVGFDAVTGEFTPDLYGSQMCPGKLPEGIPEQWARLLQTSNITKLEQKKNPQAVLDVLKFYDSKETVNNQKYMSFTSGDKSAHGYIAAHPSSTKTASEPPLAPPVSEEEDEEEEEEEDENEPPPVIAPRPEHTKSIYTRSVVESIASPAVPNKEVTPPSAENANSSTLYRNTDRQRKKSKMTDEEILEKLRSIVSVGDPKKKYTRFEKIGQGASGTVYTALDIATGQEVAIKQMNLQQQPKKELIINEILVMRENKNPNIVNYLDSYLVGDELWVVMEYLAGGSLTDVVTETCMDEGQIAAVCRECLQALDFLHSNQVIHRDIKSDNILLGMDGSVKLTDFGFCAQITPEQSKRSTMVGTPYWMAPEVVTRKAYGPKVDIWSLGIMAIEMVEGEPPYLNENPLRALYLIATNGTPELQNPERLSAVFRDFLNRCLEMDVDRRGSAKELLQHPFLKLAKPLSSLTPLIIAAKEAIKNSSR
pIC50: −log10 of the molar value.
REPORTED_PROPERTY: pIC50

For the compound COc1cc(Nc2ccc3c(n2)CN(C)C32CCN(C3COC3)CC2)c(C(N)=O)nc1-c1cccc2c1ncn2C , give its reported pIC50.
< 5.00

====

# MEASURED_ON: UniProt P06239
# Sequence (P06239 whole entry): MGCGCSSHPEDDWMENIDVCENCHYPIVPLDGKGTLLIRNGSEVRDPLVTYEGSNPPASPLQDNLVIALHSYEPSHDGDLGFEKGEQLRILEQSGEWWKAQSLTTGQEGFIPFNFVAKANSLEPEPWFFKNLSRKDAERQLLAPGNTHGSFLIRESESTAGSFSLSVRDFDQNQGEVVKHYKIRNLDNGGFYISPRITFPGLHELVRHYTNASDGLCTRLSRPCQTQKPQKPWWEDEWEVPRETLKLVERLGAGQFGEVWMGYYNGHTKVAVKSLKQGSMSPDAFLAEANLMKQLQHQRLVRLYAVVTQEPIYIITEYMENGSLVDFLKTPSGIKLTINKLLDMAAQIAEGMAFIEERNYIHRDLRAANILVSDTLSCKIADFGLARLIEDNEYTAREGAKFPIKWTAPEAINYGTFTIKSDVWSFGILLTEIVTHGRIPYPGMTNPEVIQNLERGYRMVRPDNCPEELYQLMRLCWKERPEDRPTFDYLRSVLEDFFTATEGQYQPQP
REPORTED_PROPERTY: IC50 (nM)
Answers are plain numbers, in nM.

Report measured IC50; entry is COc1cc(Nc2ccc3c(n2)CN(C)C32CCN(C3COC3)CC2)c(C(N)=O)nc1-c1cccc2c1ncn2C
521

====

Record form. Attribute: pEC50. Fill in for each entry.
# ASSAY_PROTOCOL: Effect on IL-2 secretion in human T cells by ELISA method
# Assay type: functional, cell-based
# SETUP_CONDITIONS: T-cell
One number for each entry, as −log10 of the molar value.

Field: pEC50. Fill in for each record below.
1. COc1cc(Nc2ccc3c(n2)CN(C)C32CCN(C3COC3)CC2)c(C(N)=O)nc1-c1cccc2c1ncn2C
2. CN(C)Cc1nc(Nc2ccc(-c3cnc4cc(F)ccn34)c3c2C(=O)NC3)ccc1C1CCOCC1

1: 7.41; 2: 7.45

====

# ASSAY_PROTOCOL: Solubility in compound in FassIF at pH 6.5 incubated for 24 hrs by HPLC-UV analysis
# Assay type: physicochemical
REPORTED_PROPERTY: solubility at 24 h
Please state the number and follow it with the unit.

Read off the recorded solubility at 24 h for COc1cc(Nc2ccc3c(n2)CN(C)C32CCN(C3COC3)CC2)c(C(N)=O)nc1-c1cccc2c1ncn2C
18.9 µM

====

# ASSAY_PROTOCOL: in vivo
# SETUP_CONDITIONS: Sprague-Dawley, rat, plasma, iv, 1 mg/kg
# Description: Clearance in Sprague-Dawley rat plasma at 1 mg/kg, iv
REPORTED_PROPERTY: clearance (mL/min/kg)
One number for each entry, in mL/min/kg.

>  <COMPOUND_STRUCTURE>
COc1cc(Nc2ccc3c(n2)CN(C)C32CCN(C3COC3)CC2)c(C(N)=O)nc1-c1cccc2c1ncn2C

>  <UNIT_OF_MEASUREMENT>
mL/min/kg

>  <VALUE>
9.67

$$$$

With those in mind, consider the next compound.
Note down clearance recorded for CN1Cc2nc(Nc3cc(C4CC4)c(-c4cccc5c4ncn5C)nc3C(N)=O)ccc2C12CCN(C1COC1)CC2
19.8

====

# ASSAY_PROTOCOL: Plasma protein binding in human assessed as unbound fraction at 2 uM incubated for 4 hrs by LC-MS/MS analysis
# Assay type: ADME, cell-free
REPORTED_PROPERTY: fraction unbound at 4 h, 2 µM
One number for each entry.

Recall and state the measured fraction unbound at 4 h, 2 µM for COc1cc(Nc2ccc3c(n2)CN(C)C32CCN(C3COC3)CC2)c(C(N)=O)nc1-c1cccc2c1ncn2C .
0.129

====

# ASSAY_PROTOCOL: Efflux ratio in human Caco-2 cells
# Format: ADME, cell-based
REPORTED_PROPERTY: efflux ratio

Give the reported value of efflux ratio for this record: COc1cc(Nc2ccc3c(n2)CN(C)C32CCN(C3COC3)CC2)c(C(N)=O)nc1-c1cccc2c1ncn2C
8.4

====

# MEASURED_ON: Mitogen-activated protein kinase kinase kinase kinase 3 (Homo sapiens, UniProt Q8IVH8)
# ASSAY_PROTOCOL: Inhibition of GLK (unknown origin)
t if IC50 is below 200 nM. f if not; exact matches included in f.

The following compounds have reported results that may help.
>  <COMPOUND>
CN1Cc2nc(Nc3cc(C4CC4)c(-c4cccc5c4ncn5C)nc3C(N)=O)ccc2C12CCN(C1COC1)CC2

>  <CLASSIFICATION>
t

$$$$
>  <COMPOUND>
COc1cc(Nc2ccc3c(n2)CN(C)C32CCOCC2)c(C(N)=O)nc1-c1cccc2c1ncn2C(F)F

>  <CLASSIFICATION>
f

$$$$
>  <COMPOUND>
CN1Cc2nc(Nc3cc(OC(F)F)c(-c4cccc5c4ncn5C)nc3C(N)=O)ccc2C12CCOCC2

>  <CLASSIFICATION>
t

$$$$

Threshold test, IC50 < 200 nM: COc1cc(Nc2ccc3c(n2)CN(C)C32CCOCC2)c(C(N)=O)nc1-c1cncc2c1ncn2C
f

Below 200 nM on IC50? Entry CN1Cc2nc(Nc3ccc(C4=CCCC(NC(=O)c5ccccc5)C4)nc3C(N)=O)ccc2C12CCOCC2 (stereo not given)
t

====

# ASSAY_PROTOCOL: Plasma protein binding in dog assessed as unbound fraction at 2 uM incubated for 4 hrs by LC-MS/MS analysis
# Format: ADME, cell-free, Canis lupus familiaris
REPORTED_PROPERTY: fraction unbound at 4 h, 2 µM
Give bare numbers.

Provide one value: measured fraction unbound at 4 h, 2 µM of COc1cc(Nc2ccc3c(n2)CN(C)C32CCN(C3COC3)CC2)c(C(N)=O)nc1-c1cccc2c1ncn2C
0.309

====

# MEASURED_ON: Mitogen-activated protein kinase kinase kinase kinase 2 (Homo sapiens)
# Sequence (Q12851 whole entry): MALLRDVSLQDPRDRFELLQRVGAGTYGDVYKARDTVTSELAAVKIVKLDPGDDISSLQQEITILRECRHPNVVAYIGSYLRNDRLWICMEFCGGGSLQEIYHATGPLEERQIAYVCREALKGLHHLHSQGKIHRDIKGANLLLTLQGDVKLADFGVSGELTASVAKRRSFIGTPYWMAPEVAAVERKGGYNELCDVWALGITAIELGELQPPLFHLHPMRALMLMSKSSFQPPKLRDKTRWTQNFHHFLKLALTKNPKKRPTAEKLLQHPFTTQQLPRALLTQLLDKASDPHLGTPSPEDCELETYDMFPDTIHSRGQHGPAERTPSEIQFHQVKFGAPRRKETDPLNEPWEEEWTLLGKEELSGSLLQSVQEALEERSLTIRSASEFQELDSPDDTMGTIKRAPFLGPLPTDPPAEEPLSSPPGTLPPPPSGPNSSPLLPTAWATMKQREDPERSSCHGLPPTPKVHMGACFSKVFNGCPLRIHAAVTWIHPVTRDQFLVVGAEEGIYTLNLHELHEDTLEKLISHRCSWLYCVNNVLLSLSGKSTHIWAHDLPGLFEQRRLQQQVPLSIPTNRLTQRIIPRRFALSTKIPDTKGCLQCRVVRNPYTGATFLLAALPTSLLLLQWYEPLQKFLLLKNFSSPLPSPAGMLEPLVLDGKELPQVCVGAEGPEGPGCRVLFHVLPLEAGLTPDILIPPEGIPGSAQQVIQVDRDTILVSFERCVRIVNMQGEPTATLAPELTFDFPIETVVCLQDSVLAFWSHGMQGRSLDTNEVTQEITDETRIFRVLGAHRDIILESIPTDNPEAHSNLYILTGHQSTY
# ASSAY_PROTOCOL: Inhibition of human recombinant full length GST tagged N-terminal MAP4K2 (1 to 820 end residues) expressed in insect Sf21 cells
REPORTED_PROPERTY: IC50 (µM)
Answers are plain numbers, in µM.

Please give the documented IC50 of COc1cc(Nc2ccc3c(n2)CN(C)C32CCN(C3COC3)CC2)c(C(N)=O)nc1-c1cccc2c1ncn2C
1.74

====

# MEASURED_ON: Mitogen-activated protein kinase kinase kinase kinase 3 (Homo sapiens)
# Sequence (Q8IVH8 whole entry): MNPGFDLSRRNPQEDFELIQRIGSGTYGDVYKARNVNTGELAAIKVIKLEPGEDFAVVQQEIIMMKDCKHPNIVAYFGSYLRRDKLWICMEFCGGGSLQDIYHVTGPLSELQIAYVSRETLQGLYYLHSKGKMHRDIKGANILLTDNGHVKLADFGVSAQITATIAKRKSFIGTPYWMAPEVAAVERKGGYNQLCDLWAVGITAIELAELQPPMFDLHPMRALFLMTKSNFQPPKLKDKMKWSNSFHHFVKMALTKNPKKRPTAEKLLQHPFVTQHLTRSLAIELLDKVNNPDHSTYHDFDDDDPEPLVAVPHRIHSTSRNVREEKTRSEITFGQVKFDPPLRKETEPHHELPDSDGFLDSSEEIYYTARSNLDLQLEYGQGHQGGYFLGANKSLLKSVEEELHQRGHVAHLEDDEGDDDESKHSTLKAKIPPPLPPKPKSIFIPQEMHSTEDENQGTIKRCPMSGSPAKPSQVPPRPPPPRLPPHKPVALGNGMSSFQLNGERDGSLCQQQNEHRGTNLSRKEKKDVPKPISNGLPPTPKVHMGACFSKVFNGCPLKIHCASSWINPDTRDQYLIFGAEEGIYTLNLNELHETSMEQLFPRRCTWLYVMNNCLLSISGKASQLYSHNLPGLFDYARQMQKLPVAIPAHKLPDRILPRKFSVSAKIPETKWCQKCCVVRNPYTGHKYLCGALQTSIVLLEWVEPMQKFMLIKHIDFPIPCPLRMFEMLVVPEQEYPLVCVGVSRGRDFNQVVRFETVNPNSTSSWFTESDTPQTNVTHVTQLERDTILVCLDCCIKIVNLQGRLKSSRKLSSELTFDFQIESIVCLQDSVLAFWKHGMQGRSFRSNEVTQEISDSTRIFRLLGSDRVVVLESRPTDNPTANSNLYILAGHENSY
# ASSAY_PROTOCOL: Inhibition of human recombinant GST-tagged MAP4K3 ([…]) extracted from Baculovirus expression system
REPORTED_PROPERTY: pIC50
Numbers only, as −log10 of the molar value.

For the compound COc1cc(Nc2ccc3c(n2)CN(C)C32CCN(C3COC3)CC2)c(C(N)=O)nc1-c1cccc2c1ncn2C , give its measured pIC50 value.
6.49
